# assay_target: human cancer-specific MUC1 peptide (PTL 1) (human)
# test: ELISA on immobilised human cancer-specific MUC1 peptide, 4-parameter fit, duplicate (Example 6-2)
What EC50 was measured for each of the following?
Give just the number in pM; leave the unit off.

// field: EC50; key: Ex-No 108, conjugate of Fab^5 without peptide linker (structure given only as drawing CHEM-US-00165) (Fab, V domains shown, labeling may sit on this chain; sites not stated; low molecular weight molecule (MW 542) bound to the Fab, sites and chain not stated; 1-3 per Fab by MS; Gln 1 pyroglutamic acid as Fab^5 is defined in paragraph 370) VH: QVQLVQSGAEVKKPGASVKVSCKASGYTFTNYGLSWVRQAPGQGLEWMGENHPGSGIIYHNEKFRGRVTLTADRSTSTAYMELSSLRSEDTAVYYCARSSGTRGFDYWGQGTLVTVSS VL: DVVMTQTPLSLSVTPGQPASISCRSSQSIVHSNGNTYLEWYLQKPGQSPQLLIYRVSNRFSGVPDRFSGSGSGTDFTLKISRVEAEDVGVYYCFQGSHGPWTFGQGTKLEIKR ; value = 70

The binder listed as [Gd/DOTA-[2,5-(1,2,3,4-tetrahydroisoquinoline)]-C(═O)-Met-Gly-Lys*-C(═S)-NH-(1,4-Ph)-NH-C(═S)]p-Fab^5 (Fab, V domains shown, labeling may sit on this chain; sites not stated; labeling portion (MW 1228) on amino groups of the Fab, sites and chain not stated; 1-2 per Fab by MS; Gln 1 pyroglutamic acid as Fab^5 is defined in paragraph 370) VH: QVQLVQSGAEVKKPGASVKVSCKASGYTFTNYGLSWVRQAPGQGLEWMGENHPGSGIIYHNEKFRGRVTLTADRSTSTAYMELSSLRSEDTAVYYCARSSGTRGFDYWGQGTLVTVSS VL: DVVMTQTPLSLSVTPGQPASISCRSSQSIVHSNGNTYLEWYLQKPGQSPQLLIYRVSNRFSGVPDRFSGSGSGTDFTLKISRVEAEDVGVYYCFQGSHGPWTFGQGTKLEIKR has a reported EC50 of 190

EC50 reading for Ex-No 103, conjugate of Fab^5 (structure given only as drawing CHEM-US-00162) (Fab, V domains shown, labeling may sit on this chain; sites not stated; low molecular weight molecule (MW 1115) bound to the Fab, sites and chain not stated; 1-2 per Fab by MS; Gln 1 pyroglutamic acid as Fab^5 is defined in paragraph 370) VH: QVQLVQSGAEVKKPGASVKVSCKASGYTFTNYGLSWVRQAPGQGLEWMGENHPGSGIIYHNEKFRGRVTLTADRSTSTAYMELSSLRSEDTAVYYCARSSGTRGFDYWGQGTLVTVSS VL: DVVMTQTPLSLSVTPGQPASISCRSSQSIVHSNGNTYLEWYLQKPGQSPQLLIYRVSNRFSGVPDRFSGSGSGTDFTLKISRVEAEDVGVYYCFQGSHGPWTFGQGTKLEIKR : 80

// sample Ex-No 110, conjugate of Fab^5 (structure given only as drawing CHEM-US-00167) (Fab, V domains shown, labeling may sit on this chain; sites not stated; low molecular weight molecule (MW 1201) bound to the Fab, sites and chain not stated; 1-2 per Fab by MS; Gln 1 pyroglutamic acid as Fab^5 is defined in paragraph 370) VH: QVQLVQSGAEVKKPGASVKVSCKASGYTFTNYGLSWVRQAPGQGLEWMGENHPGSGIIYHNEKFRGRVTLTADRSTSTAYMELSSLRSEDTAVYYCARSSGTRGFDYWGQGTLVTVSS VL: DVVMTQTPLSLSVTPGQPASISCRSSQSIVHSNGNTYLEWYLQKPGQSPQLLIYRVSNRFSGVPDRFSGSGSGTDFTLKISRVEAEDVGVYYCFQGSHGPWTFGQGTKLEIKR , its EC50 was 190

In plain terms, Ex-No 111, conjugate of Fab^5 (structure given only as drawing CHEM-US-00168) (Fab, V domains shown, labeling may sit on this chain; sites not stated; low molecular weight molecule (MW 1391) bound to the Fab, sites and chain not stated; 1-2 per Fab by MS; Gln 1 pyroglutamic acid as Fab^5 is defined in paragraph 370) VH: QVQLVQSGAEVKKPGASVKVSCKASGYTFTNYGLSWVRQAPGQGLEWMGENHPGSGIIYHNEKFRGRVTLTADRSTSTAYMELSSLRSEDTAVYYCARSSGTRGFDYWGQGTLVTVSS VL: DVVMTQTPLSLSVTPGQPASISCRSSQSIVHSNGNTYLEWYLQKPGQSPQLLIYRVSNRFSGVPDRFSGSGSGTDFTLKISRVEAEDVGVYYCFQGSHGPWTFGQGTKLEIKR has a documented EC50 of 160
